experiment-summary: soluble on expression in E. coli; label from the status in PepcDB or PDB records
endpoint-name: soluble on expression in E. coli

Past entries and their recorded results:
[
  {
    "sequence-record": "MGSDKIHHHHHHMPIVTIGIDLAKNIFAVHGVDEAGKAMLIKPRVPRDQLATLIAQLPACLIGMEACSGAHHWARLFQQHGHTVKLMAPNLVAPYRMSGKRGKNDAADAAAICEAVARPSMRFVPLKDEHQQATLCLHRTRQGFVEERTATYNRLRGLLPEFGVVLPQSPEKLRRYVTEHLDALPGWAKRSIGDLLEHAGHIEDRLLEYDRAIAEIAREDARSKRLMQLRGVGPTTASALLASIGAGRDFRNGRQVAAWIGLTPGQYSSGGKARLGSITKAGDAYLRGLLVNGARAVIANLGEKQDRFSRWVRTLIERRGYWRAAVAIAAKNARLAWASLKYGEDFKLEPAAD",
    "soluble on expression in E. coli": "not soluble"
  },
  {
    "sequence-record": "SSTIGSFEGFQAVSLKQEGDDQPSETDHLSMEEEDPMPRQISRQSSVTESTLYPNPYHQPYISRKYFATRPGAIETAMEDLKGHVAETSGETIQGFWLLTKIDHWNNEKERILLVTDKTLLICKYDFIMLSCVQLQRIPLSAVYRICLGKFTFPGMSLDKRQGEGLRIYWGSPEEQSLLSRWNPWSTEVPYATFTEHPMKYTSEKFLEICKLSGFMSKLVPAIQNAHKNSTGSGRGKKLMVLTEPILIETYTGLMSFIGNRNKLGYSLARGSIGF",
    "soluble on expression in E. coli": "soluble"
  },
  {
    "sequence-record": "MGSDKIHHHHHHMKPIQLPLSVRLRDDATFANYYPGANAAALGYVERLCEAEAGWAESLIYLWGHDGVGRSHLLQAACLRFEQFEERTIYLPMADLVQYGPEIFDDLEQCELVCIDDLDVLVGKREWEEGLFHLFNRLRDTGRRLLLAASKSPRELQVKLPDLKSRLTMALIFQLHGLSDEDKLRALQLRASRRGLHLTDEVGRFILNRGSRSMNSLFDLLEQLDRASLQAQRKLTIPFLKETLGW",
    "soluble on expression in E. coli": "not soluble"
  },
  {
    "sequence-record": "MVKSFLMLGQSNMAGRGFINEVPMIYNERIQMLRNGRWQMMTEPINYDRPVSGISLAGSFADAWSQKNQEDIIGLIPCAEGGSSIDEWALDGVLFRHALTEAKFAMESSELTGILWHQGESDSLNGNYKVYYKKLLLIIEALRKELNVPDIPIIIGGLGDFLGKERFGKGCTEYNFINKELQKFAFEQDNCYFVTASGLTCNPDGIHIDAISQRKFGLRYFEAFFNRKHVLEPLINENELLNLNYARTHTKAEKIYIKSMDFALGKISYDEFTSELMKINNDLEHHHHHH",
    "soluble on expression in E. coli": "soluble"
  },
  {
    "sequence-record": "MNYRDLTLRERQVLGIIIQSYVVSAMPVGSRTIARNYNLGLSDATIRNVMADLEADGFISQPHTSAGRVPTDKGYRYYVDLIMNVSRIDEEEKRMIDDRFSNRNSELKGTSAEVLGTAARVLGSISRQLAVVLPPRLSNAVFERLDIVQLASSRIMVVIAIQSLFVKTIVMELNAEISRQKIDAVVDVLNERLPGLTLEEIRSTIAQRLSDFKGSEELMNSIVSSADTLFDESSILEQLYVSGTENIVDQPEFKQPEKVRDIITMIEDKFGMARLVDNAVPSALRQVSECEVAISIGTENRTGKAADLTIVSSPYFAGKMIGRVGVMGPKRMNYEHAVRVVNYMAGCLSEALSGNN",
    "soluble on expression in E. coli": "not soluble"
  }
]

# return recorded soluble on expression in E. coli for entry QVQLVQSGAEVRKPGASVKVSCKASGDTFSSYAISWVRQAPGQGLEWMGGIIPIFGTANYAQAFQGRVTITANESTSTAYMELSSLRSEDTAIYYCARDNPTLLGSDYWGAGTLVTVSSASTKGPSVFPLAPCSRSTSGGTAALGCLVKDYFPEPVTVSWNSGALTSGVHTFPAVLQSSGLYSLSSVVTVPSSSLGTQTYICNVNHKPSNTKVDKRV
soluble

Retrieve soluble on expression in E. coli measured for GPGSMTTSDELPANGELDQPERIPDVVECERLKKAGNDLFAADRVAEALELYREAIKHAPLKPVKKPTQHRQDEVPPCGSEGTAQNSIGESSVVSEKSSAPGTEKSSKVGADDAAQDGDDDGIDYTLTSQVYCNAGLCLSKQGMPEDAITHLSEAIRHNKQYSKAYYRRAECYYVLGKWSNAYGDYEEYEKLGGTLDAGSQDRKRQAKAKVDEEMQKMLGELKNMGNRFLNYFGLSTDNFKFDKDPNTGGYSVRFEQ and print it.
not soluble

For MAISGVTLEESVRGAIDDLRMKKSRYVMMCIGADGKKIEVTEVGERSVNYTDLKEKFSTEKPCYVAFDFEYNDAGSKREKLILIQWIPDTARPREKMMYSASRDALSSVSEGYLPIQANDESGLDAEEIIRKVRLHRSVAAALE , write its soluble on expression in E. coli.
soluble

Entry GGHTVPKPFNLSKGKRKHEEASDYVSTAEQVIAFYKRTPARYHLRSRQREMEGPSPVKMIKTKLTNPKTPLLQTKGRHRPV needs its soluble on expression in E. coli filled in; supply it.
soluble

Respond only with soluble on expression in E. coli recorded for MKRILLSLLAMATLVGCGSKDDNNPTPPQRPDFTKEQQNYLPTKKVKHVTATYVEADYENGSYPSVQYKDFLNPELNQGQKFTVKTMEYFYEYDNAGRITKVTFKREGDSDIVSTLTYSNISVTITSPPPYDGIREPRSIEYGLNSSGNILSLGVYNEKQQLKNSMSAGTFTWENDNLTKISRKVTRNGVVKERGVKFSYNSATNKNKFYLLDHTGDDIRSYQEYFALSIAIIKGAAPKNLPIEATPLEENDSYSSRFERPVSFSYTFDGDEFVKTITEKENKFVPGSLYSYVPNNGNNEIGTYWNELQTLIANIENKTVTNKSYKLISDDGSTRIFEITVPVKVEKDSNGKTINLNVNKVCKFTVSYNNTSATDIRMEATYYADIITNYELNY
not soluble

Identify the reported soluble on expression in E. coli for the following entry. MGSDKIHHHHHHMDIDLARTFLEIARSGSFVAAAERLHLTQTAVTARIQNLEGQLGCRLFVRNRAGARLTADGEHFLGYASQLVQTWDAARRDLPLPDGFRNLLNLGGEVSLCNPLLLNWMRRLREAIPGHAVRVEIGQGADLLKQLEQGALDAALVYQPEYWPGLQVEQLLEEKLVMVRSVLSAEPYLYVDWGPDFRSQHDAALPDRAKAALACNLGPLALQYIMQNGGSGYFRTRVVSSYLDGGTLQRVEQAPEFAYPTYLVYSRERLSPTLRHAFQLLREVVREDSDWSQRWDYVI
not soluble
